// provenance: ChEMBL document CHEMBL4373663

// reported Activity per item
Tested on: Escherichia coli
method: Inhibition of Escherichia coli DNA topoisomerase 4 using supercoiled pNO1 plasmid DNA as substrate assessed as enzyme residual activity at 10 uM incubated for 30 mins by fluorescence assay relative to control
Value and unit, in that order.

# annotated cases, reported Activity shown
{"columns": ["compoundString", "Activity"],
 "data": [
  ["COC(=O)CC(=O)Nc1ccc(NC(=O)c2cc(Br)c(Br)[nH]2)c(-c2noc(C)n2)c1", "72%"],
  ["Cc1nc(-c2cc(NC(=O)CC(=O)NN)ccc2NC(=O)c2cc(Br)c(Br)[nH]2)no1", "88%"],
  ["O=C(O)COc1ccc(NC(=O)c2cc(Br)c(Br)[nH]2)c(OCc2ccccc2)c1", "84%"]
]}

Now for a further molecule.
In: Can you share its Activity? I mean this molecule: Cc1nc(-c2cc(NC(=O)Cc3n[nH]c(=O)o3)ccc2NC(=O)c2cc(Br)c(Br)[nH]2)no1
Out: 91%

====

studySystem: DNA gyrase (Staphylococcus aureus, UniProt P0A0K8+P20831)
Sequence (P0A0K8 whole entry): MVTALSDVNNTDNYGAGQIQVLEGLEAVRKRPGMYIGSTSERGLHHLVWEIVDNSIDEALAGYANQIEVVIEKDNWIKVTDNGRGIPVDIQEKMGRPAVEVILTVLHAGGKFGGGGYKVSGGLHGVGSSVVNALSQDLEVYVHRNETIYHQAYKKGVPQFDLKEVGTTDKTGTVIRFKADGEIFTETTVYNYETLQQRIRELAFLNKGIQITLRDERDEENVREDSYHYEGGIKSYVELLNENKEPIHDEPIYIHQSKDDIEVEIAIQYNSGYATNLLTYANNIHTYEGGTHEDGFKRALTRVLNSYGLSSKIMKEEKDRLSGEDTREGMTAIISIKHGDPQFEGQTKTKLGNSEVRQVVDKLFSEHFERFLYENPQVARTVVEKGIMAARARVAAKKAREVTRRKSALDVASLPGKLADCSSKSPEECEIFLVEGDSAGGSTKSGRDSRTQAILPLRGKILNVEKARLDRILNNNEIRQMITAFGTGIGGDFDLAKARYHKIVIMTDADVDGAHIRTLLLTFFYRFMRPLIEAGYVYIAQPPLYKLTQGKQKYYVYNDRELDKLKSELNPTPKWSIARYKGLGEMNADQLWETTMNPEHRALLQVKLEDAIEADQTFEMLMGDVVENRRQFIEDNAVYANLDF
Sequence (P20831 whole entry): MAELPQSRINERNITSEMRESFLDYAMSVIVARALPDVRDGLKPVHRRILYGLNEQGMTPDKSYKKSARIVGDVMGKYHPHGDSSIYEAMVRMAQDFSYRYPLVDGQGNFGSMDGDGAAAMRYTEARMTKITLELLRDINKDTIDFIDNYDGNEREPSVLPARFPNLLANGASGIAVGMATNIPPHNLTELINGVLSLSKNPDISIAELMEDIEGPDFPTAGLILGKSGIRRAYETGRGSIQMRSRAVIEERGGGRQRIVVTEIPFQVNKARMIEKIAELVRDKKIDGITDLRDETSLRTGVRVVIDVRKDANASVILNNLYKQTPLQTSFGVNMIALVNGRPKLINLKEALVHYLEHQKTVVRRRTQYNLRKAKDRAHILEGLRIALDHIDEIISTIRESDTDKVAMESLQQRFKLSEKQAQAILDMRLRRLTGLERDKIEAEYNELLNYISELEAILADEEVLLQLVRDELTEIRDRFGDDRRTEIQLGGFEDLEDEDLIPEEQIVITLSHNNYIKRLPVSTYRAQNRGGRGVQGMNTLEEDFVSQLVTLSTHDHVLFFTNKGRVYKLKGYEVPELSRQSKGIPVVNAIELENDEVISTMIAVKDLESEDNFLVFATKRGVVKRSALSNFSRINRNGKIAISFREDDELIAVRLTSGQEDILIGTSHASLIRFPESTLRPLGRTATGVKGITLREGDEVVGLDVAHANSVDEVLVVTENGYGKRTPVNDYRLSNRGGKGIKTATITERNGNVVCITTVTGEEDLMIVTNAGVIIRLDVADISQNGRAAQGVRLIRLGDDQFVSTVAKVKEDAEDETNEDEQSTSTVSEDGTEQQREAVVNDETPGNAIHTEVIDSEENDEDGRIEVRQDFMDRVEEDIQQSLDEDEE
method: Inhibition of Staphylococcus aureus DNA gyrase using relaxed pNO1 plasmid DNA as substrate incubated for 30 mins by fluorescence assay
reportedEndpoint: IC50 (µM)
Hi! Could you send only the number? It should be in µM, unit omitted.

{"columns": ["compoundString", "reportedEndpoint", "valueObserved"],
 "data": [
  ["COC(=O)CC(=O)Nc1ccc(NC(=O)c2cc(Br)c(Br)[nH]2)c(-c2noc(C)n2)c1", "IC50", 63],
  ["Cc1nc(-c2cc(NC(=O)Cc3n[nH]c(=O)o3)ccc2NC(=O)c2cc(Br)c(Br)[nH]2)no1", "IC50", 11]
]}

Now for a further compound.
In: Can you share its IC50? I mean this compound: Cc1nc(-c2cc(NC(=O)CC(=O)O)ccc2NC(=O)c2cc(Br)c(Br)[nH]2)no1
Out: 1.4
